// data source = PubChem BioAssay AID849

// reported IC50 per item
Tested on: Saccharomyces cerevisiae lifespan shortening, growth inhibition
Assay Protocol: yeast lifespan shortening compounds, dose response (AID 849);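 further: yeast growth read as optical density after two days at 30 degrees C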
Active and inactive are the calls of the source. How the calls were made is not given here.

Oc1cccc2ccc(Nc3ccccn3)nc12: 14 µM
CC(C)(C)n1nc(-c2ccc(Cl)cc2)c2c(N)ncnc21: 20.7 µM
COc1cc2c(cc1OC)CN(C(=O)CSc1nnc3scc(-c4ccccc4)n13)CC2: > 100 µM (inactive)
COc1ccc(-c2[nH]ncc2-c2ccc(Cl)cc2)c(O)c1: > 100 µM (inactive)
CCN1/C(=C/c2ccc3cc(C)ccc3[n+]2CC)Sc2ccccc21: 4.48 µM

Fill blank: measured IC50 of the molecule COc1ccccc1N1CCN(C(CNC(=O)c2ccco2)c2cccnc2)CC1 (stereo unspecified) is ____.
> 100 µM (inactive)

For "Cc1cc(C(=O)N/N=C/c2cccc([N+](=O)[O-])c2O)n[nH]1" , what is its reported IC50?
> 100 µM (inactive)

Given the entry "Cc1ccc(-c2[nH]nc(N)c2N=Nc2ccccc2C)cc1" , report its measured IC50.
> 100 µM (inactive)

Dear colleague, I am looking for the recorded IC50 of the following molecule: "COc1cc(OC)nc(NC(=O)CS(=O)(=O)c2ccccc2)n1"
33.4 µM

Reported IC50 for "CCCCCCCCCCCCCCCC[n+]1ccc(C(N)=O)cc1" : what is it?
1.1 µM

Using the record for "CCc1cccc(CC)c1NC(=S)NCc1ccc2[nH]c(C)cc2c1" , report its IC50.
> 100 µM (inactive)

* * *

Tested on: Saccharomyces cerevisiae lifespan shortening, growth inhibition
Assay Protocol: yeast lifespan shortening compounds, dose response (AID 849);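 further: yeast growth read as optical density after two days at 30 degrees C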
The source made the active and inactive calls. The rule behind the calls is not given here.
Pick from yes (1) (active), no (0) (inactive) when you respond.

Solved cases (5 shown):
O=C(OCn1ncc(Cl)c(Cl)c1=O)c1ccccc1Cl: yes (1)
O=c1cc(-c2ccncc2)oc2ccccc12: yes (1)
CCCc1cc(C(=O)NC2CCCCC2)no1: no (0)
CC(C)Sc1nc(N)nc(-c2cccs2)c1C#N: no (0)
c1ccc(-n2c(-c3ccco3)nnc2-c2ccco2)cc1: no (0)

Query: recorded result category for "COc1cccc2c(=O)c3c(cnn3C)n(C)c12" in this test
yes (1)

Which outcome was entered for the compound "CCn1c(=O)c(C(=O)Nn2c(C)nc3ccccc3c2=O)c(O)c2ccccc21" in this test?
yes (1)

// outcome(item) with item = "Cc1nn(-c2ccccc2)c2sc(C(=O)O)cc12"
yes (1)

Please indicate how the test categorized "c1ccc(N(c2ccccc2)c2nc(-n3ccnc3)nc(-n3ccnc3)n2)cc1" .
no (0)

Status in this test for OC(COc1ccc2ccccc2c1Br)Cn1cnc(-c2ccccc2)c1 (configuration not stated) ?
yes (1)

Check the results log: what was the call for "Cc1cc(O)c(/C=N/Nc2ccccc2Cl)c(=O)o1" ?
yes (1)

Recorded test outcome, item "Oc1ccc(CN2CCCCC2)c2cccnc12"
yes (1)

* * *

Tested on: Saccharomyces cerevisiae lifespan shortening, growth inhibition
Assay Protocol: yeast lifespan shortening compounds, dose response (AID 849); call rule not given here;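 further: yeast growth read as optical density after two days at 30 degrees C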
Just give me one of these, please: True (active), False (inactive)

Please review the entries below; each comes with its answer.
CN1CSC(=S)N(C)C1: True
CCN(CC)c1ccc(S(=O)(=O)N2CCOCC2)cc1NC(=O)CSc1cccc[n+]1[O-]: True
CC/C(C)=N/Nc1cccc([N+](=O)[O-])c1: True

Now look at this one.
GET /call?item= "Cc1cc(N/N=C/c2ccc(Cl)cc2Cl)nc(NCc2ccccc2)n1" returns the recorded outcome of this test.
True
